Reference source: patent US20260365670A1

molecular target: EGFR (C797S L858R) (Homo sapiens, UniProt P00533, C797S/L858R); construct: purchased signalchem; assay: Inhibition of EGFR (C797S L858R) biochemical enzymatic activity (HTRF); conditions: EGFR (C797S L858R), 1 mM ATP, 1 h at room temperature, read-out: IC50 @L858-C797S
Sequence (P00533 25-1210 C797S/L858R): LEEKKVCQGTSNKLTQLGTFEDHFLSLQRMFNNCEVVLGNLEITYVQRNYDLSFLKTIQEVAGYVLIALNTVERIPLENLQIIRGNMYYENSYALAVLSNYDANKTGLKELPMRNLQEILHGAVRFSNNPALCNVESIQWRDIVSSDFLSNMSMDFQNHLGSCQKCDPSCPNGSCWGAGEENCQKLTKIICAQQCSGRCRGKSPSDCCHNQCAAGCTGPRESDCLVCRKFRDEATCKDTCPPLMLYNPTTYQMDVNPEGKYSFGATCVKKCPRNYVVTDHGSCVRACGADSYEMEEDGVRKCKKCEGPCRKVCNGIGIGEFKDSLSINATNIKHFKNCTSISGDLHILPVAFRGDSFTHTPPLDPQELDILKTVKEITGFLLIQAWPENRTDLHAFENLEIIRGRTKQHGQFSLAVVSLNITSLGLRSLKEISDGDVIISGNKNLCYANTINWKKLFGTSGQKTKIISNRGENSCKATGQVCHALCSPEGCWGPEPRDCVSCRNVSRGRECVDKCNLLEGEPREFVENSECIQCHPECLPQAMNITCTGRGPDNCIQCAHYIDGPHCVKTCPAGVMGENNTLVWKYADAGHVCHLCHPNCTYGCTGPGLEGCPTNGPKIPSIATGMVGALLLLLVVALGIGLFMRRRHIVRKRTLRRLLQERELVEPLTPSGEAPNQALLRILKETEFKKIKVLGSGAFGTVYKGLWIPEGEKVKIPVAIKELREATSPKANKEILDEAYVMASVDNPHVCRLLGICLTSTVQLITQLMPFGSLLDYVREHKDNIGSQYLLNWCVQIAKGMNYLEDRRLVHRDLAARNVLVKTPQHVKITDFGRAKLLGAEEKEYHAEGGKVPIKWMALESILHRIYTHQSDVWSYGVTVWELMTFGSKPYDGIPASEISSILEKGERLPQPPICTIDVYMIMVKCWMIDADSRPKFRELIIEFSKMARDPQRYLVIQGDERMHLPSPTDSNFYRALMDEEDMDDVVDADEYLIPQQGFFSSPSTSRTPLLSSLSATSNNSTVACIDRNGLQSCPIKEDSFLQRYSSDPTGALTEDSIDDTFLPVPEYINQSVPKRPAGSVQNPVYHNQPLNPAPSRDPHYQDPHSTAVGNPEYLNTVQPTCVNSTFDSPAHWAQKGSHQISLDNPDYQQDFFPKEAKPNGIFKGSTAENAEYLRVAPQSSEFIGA
experimental.readout: pIC50
Numbers only, as −log10 of the molar value.

Please give measured pIC50 of the following entry: Cc1cc2cc(n1)-c1cnn(C)c1OCCN1CC3CCC(C3)(C1)n1c(nc3ccc(N4CCC(N5CCN(C)CC5)CC4)cc31)NC2=O (single isomer, unassigned) [Example B59B]
8.02

Proceeding to the next compound to report its pIC50.
Please give measured pIC50 of the following entry: Cc1cc2cc(n1)-c1cnn(C)c1OCCN1CC3CCC(C3)(C1)n1c(nc3ccc(N4CCC5(CCN(C)CC5)C4)cc31)NC2=O (single isomer, unassigned) [Example B51B]
8.08
